Target: T1, TIA-1 RRM2,3 (Homo sapiens, UniProt P31483-2 93-274)
T1 sequence: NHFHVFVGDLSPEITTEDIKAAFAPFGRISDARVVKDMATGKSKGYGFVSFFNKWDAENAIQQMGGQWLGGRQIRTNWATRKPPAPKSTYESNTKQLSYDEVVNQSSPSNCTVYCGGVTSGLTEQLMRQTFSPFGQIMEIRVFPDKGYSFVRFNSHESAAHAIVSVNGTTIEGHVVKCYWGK
Assay: ITC
reported-property: Kd (nM)
Output spec: scalar in nM, unitless text.

Can you share its Kd? I mean this binder: UUCUCCUUUC (ssRNA) [fas_10]
35.6
